Below is a list of entries, each paired with its recorded t½ Ratio of pH 7.4 to pH 6.0 value.
- assay-system: SARS-COV-2 RBD-MMH (SARS-COV-2 RBD extracellular domain with C-terminal myc-myc-hexahistidine tag) (SARS-CoV-2)
- protocol: SPR 37C, mAb captured, pH 7.4 vs pH 6.0
Form rule: numeric answer, no unit written next to it.

Past entries and their recorded results:
>>> numeric_readout("mAb14294 (antibody, V domains shown) VH: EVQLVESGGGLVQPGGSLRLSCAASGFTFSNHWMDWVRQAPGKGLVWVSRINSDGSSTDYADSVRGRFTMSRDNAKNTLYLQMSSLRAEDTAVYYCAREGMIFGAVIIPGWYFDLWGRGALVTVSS VL: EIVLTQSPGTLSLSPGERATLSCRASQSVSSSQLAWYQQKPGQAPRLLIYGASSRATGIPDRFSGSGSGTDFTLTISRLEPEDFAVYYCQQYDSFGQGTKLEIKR")
0.6
>>> numeric_readout("mAb14312 (antibody, V domains shown) VH: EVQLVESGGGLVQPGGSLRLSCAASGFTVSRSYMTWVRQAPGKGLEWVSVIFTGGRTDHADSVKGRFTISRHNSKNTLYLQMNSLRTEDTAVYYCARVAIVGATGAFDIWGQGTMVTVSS VL: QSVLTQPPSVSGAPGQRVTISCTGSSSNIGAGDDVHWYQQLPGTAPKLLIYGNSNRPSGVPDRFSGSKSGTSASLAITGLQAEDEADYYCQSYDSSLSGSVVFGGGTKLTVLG")
2.1

Let us examine a further case.
(Q) Dear colleague, I am looking for the recorded t½ Ratio of pH 7.4 to pH 6.0 of the following binder: mAb15162 (antibody, V domains shown) VH: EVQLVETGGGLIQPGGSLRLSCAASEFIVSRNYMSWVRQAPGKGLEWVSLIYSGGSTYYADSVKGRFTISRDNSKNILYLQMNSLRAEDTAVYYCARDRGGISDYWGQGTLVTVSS VL: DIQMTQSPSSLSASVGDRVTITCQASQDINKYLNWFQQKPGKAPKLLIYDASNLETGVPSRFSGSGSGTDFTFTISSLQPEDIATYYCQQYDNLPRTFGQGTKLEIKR
(A) 1.2

Origin of the recorded values: patent US20260069689A1
